B1: Azoarcus group I ribozyme (parent)
chain: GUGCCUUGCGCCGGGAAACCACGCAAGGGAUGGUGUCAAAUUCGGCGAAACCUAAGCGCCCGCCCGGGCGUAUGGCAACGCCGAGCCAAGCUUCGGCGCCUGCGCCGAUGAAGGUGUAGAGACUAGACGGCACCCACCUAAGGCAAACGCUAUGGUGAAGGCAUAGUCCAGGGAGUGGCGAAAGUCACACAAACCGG

Variants of: B1
Assay Info: reverse-splicing fitness (ratio to wild type); higher = more active; in vitro selection; Mg2+ level not given
Where reverse-splicing fitness equals or exceeds 0.008, the correct label is Met; where it does not, the label is Not met.

- Variant Descriptor: "C82A A120C A145G C150U C169G"
  Category Label: "Met"
- Variant Descriptor: "C82A A111C A145U C150A C169U"
  Category Label: "Met"
- Variant Descriptor: "C82G A111G A120U A145C C150U C169U"
  Category Label: "Not met"
- Variant Descriptor: "C82G A111U A120U A145U C150A C169U"
  Category Label: "Not met"
- Variant Descriptor: "A111G A120C A145G C169A U176A"
  Category Label: "Met"
- Variant Descriptor: "C82A A120C A145C C150A C169G U176A"
  Category Label: "Met"
- Variant Descriptor: "C82U A111U A120C A145G C150G C169A U176A"
  Category Label: "Met"
- Variant Descriptor: "C82G A111U A120U A145C C150G C169U U176C"
  Category Label: "Not met"
- Variant Descriptor: "A111G A120U A145U C150U U176C"
  Category Label: "Met"
- Variant Descriptor: "C82U A111G A120G A145U C150G C169G U176A"
  Category Label: "Not met"
- Variant Descriptor: "C82U A111U C150A U176C"
  Category Label: "Met"
- Variant Descriptor: "C82U A120C A145U C150A C169A U176G"
  Category Label: "Not met"
- Variant Descriptor: "C82G A111U A120C A145G C150U"
  Category Label: "Met"
- Variant Descriptor: "A111U A120U C169A"
  Category Label: "Not met"
- Variant Descriptor: "C82G A120G A145U C150A C169A U176C"
  Category Label: "Met"
- Variant Descriptor: "C82U A111C A120G C169G"
  Category Label: "Met"
- Variant Descriptor: "C82G A111G A120C A145G C169A U176A"
  Category Label: "Met"
- Variant Descriptor: "C82G A111U A120G C150U U176G"
  Category Label: "Met"
- Variant Descriptor: "A111C A120G C169A U176G"
  Category Label: "Not met"
- Variant Descriptor: "A111U A145G C150U C169G U176C"
  Category Label: "Met"
- Variant Descriptor: "C82U A111C A120C A145C C150U C169A U176G"
  Category Label: "Not met"
- Variant Descriptor: "A120U A145U C150A"
  Category Label: "Met"
- Variant Descriptor: "C82U A120G A145G C169G U176G"
  Category Label: "Not met"
- Variant Descriptor: "C82U A111U A120G A145G C150A C169U U176A"
  Category Label: "Met"
- Variant Descriptor: "C82G A111U A145U C169U U176C"
  Category Label: "Met"
- Variant Descriptor: "C82G C150U U176A"
  Category Label: "Met"
- Variant Descriptor: "C82A A111C A120U A145U C169U U176G"
  Category Label: "Not met"
- Variant Descriptor: "C82G A111U A120G A145C C150U C169U U176C"
  Category Label: "Met"
- Variant Descriptor: "C82A A111C C150G C169A U176G"
  Category Label: "Not met"
- Variant Descriptor: "C82A A145C C150G C169U U176C"
  Category Label: "Not met"
- Variant Descriptor: "C82A A111G A120G A145G C150G C169G"
  Category Label: "Not met"
- Variant Descriptor: "C82A A111C A145C C150U C169A U176A"
  Category Label: "Met"
- Variant Descriptor: "C82G A120C A145C"
  Category Label: "Met"
- Variant Descriptor: "C82G A111C A145C C150A C169A"
  Category Label: "Met"
- Variant Descriptor: "A120G C150A C169G U176G"
  Category Label: "Not met"
- Variant Descriptor: "C82U A111U C150U C169G U176G"
  Category Label: "Not met"
- Variant Descriptor: "A120G A145G C150G C169G U176C"
  Category Label: "Met"
- Variant Descriptor: "A111C A120C A145G C150U U176A"
  Category Label: "Met"
- Variant Descriptor: "C82U A120C A145C C150G U176A"
  Category Label: "Not met"
- Variant Descriptor: "A111G A120C A145G C150A C169A U176G"
  Category Label: "Not met"
- Variant Descriptor: "C82U A111U A120G C150U C169G U176A"
  Category Label: "Met"
- Variant Descriptor: "C82U A120U A145C C150U C169A U176C"
  Category Label: "Not met"
- Variant Descriptor: "C82G A145G C150A"
  Category Label: "Met"
- Variant Descriptor: "C82G A120G C150G C169U U176C"
  Category Label: "Met"
